target: IPI (IPP isomerase) (Homo sapiens)
Sequence (Q13907 whole entry): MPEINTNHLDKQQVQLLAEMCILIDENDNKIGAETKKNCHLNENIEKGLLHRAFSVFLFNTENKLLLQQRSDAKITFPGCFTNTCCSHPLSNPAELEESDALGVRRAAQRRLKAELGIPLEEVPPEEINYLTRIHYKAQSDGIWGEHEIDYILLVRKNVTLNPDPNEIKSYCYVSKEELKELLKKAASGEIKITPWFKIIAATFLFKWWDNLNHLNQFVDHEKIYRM
IC50 listing for selected molecules.
Give just the number in nM; leave the unit off.

Known results for molecules:
Query the reported IC50 for IPI (IPP isomerase) (Homo sapiens); item: O=P(O)(O)C(NC1CCCCCC1)P(=O)(O)O [YM175]
35

Query the reported IC50 for IPI (IPP isomerase) (Homo sapiens); item: CCCCCN(C)CCC(O)(P(=O)(O)O)P(=O)(O)O [IBANDRONATE, ibandronate]
35

Query the reported IC50 for IPI (IPP isomerase) (Homo sapiens); item: O=P(O)(O)C(O)(Cc1cccnc1)P(=O)(O)O [RISEDRONATE, risedronate]
22

Read the next record carefully.
Query the reported IC50 for IPI (IPP isomerase) (Homo sapiens); item: NCCCC(O)(P(=O)(O)O)P(=O)(O)O [ALENDRONATE, alendronate]
75
